Data provenance: patent US5008271A

Tested on: dd strain male mice
Assay: Acute toxicity test (minimum lethal dose)
Assay type: in vivo
Details: intraperitoneal, mortality observed for 14 days
Procedure: Using dd strain male mice weighing 20 ±l g, a test compound was intraperitoneally administered. MLD (the minimum lethal dose) was determined by observing the mortality for 14 days after administration.
Rule: t for Acute Toxicity (MLD), minimum lethal dose not less than 0.6 mg/kg, f for anything less.

Look over these answered cases.
INSERT INTO assay_data (molecule, category_label) VALUES
  ('COC(=O)C1(C)Nc2c(OC(=O)N(C)C)cc3c(c2C1=O)C(CBr)CN3C(=O)c1cc2cc(OC)c(OC)c(OC)c2[nH]1 (centres unmarked)', 't'),
  ('COC(=O)C1(C)Nc2c(O[Si](C)(C)C(C)(C)C)cc3c(c2C1OC(C)=O)C(CBr)CN3C(=O)c1cc2cc(OC)c(OC)c(OC)c2[nH]1 (centres unmarked)', 't'),
  ('COC(=O)C1(C)Nc2c(OC(C)=O)cc3c(c2C1=O)C(CBr)CN3C(=O)c1cc2cc(OC)c(OC)c(OC)c2[nH]1 (centres unmarked)', 'f'),
  ('COC(=O)C1(C)Nc2c(O)cc3c(c2C1O)C(CBr)CN3C(=O)c1cc2cc(OC)c(OC)c(OC)c2[nH]1 (centres unmarked) [Compound 5]', 't'),
  ('COC(=O)C1(C)Nc2c(O)cc3c(c2C1O)C(CBr)CN3C(=O)c1cc2cc(OC)c(OC)c(OC)c2[nH]1 (centres unmarked) [Compound 6]', 't');

Item COC(=O)C1(C)Nc2c(O[Si](C)(C)C(C)(C)C)cc3c(c2C1=O)C(CBr)CN3C(=O)c1cc2cc(OC)c(OC)c(OC)c2[nH]1 (centres unmarked) with Acute Toxicity (MLD), minimum lethal dose of 0.6 mg/kg or above? f

Again, but for C=CCOC(=O)Oc1cc2c(c3c1NC(C)(C(=O)OC)C3=O)C(CBr)CN2C(=O)c1cc2cc(OC)c(OC)c(OC)c2[nH]1 (centres unmarked) f

Again, but for CCCCCCCCCCCC(=O)Oc1cc2c(c3c1NC(C)(C(=O)OC)C3=O)C(CBr)CN2C(=O)c1cc2cc(OC)c(OC)c(OC)c2[nH]1 (centres unmarked) f

---

Tested on: HeLa S3 cells
Experiment: Growth inhibition test using HeLa S3 cells
Assay type: cell-based
Conditions: read-out: IC50 (concentration which inhibited growth of the cells by 50%); HeLa S3 cells, 72 hours, neutral red staining
result.type: IC50 (nM)
Answer format: numeric, nM implied, no suffix.

So what does the record say about IC50 for COC(=O)C1(C)Nc2c(O)cc3c(c2C1O)C(CBr)CN3C(=O)c1cc2cc(OC)c(OC)c(OC)c2[nH]1 (stereo not shown) ? 0.2
